Molecular target: PDZRN4_1, Q6ZMN7
Sequence (Q6ZMN7 213-318): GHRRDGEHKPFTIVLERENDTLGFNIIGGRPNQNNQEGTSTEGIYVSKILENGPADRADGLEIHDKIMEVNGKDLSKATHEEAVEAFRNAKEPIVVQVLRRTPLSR
Assay: holdup assay
Parameters: key: below the threshold = too weak to quantify, mostly under pKd 3.1 to 4
Settings: plain residues with an end cap or a label only (N-terminal biotin on a linker: ttds)
ASSAY ENDPOINT: pKd
Answers are plain numbers.

Worked examples follow.
                          binder  test_result
0  SKPTRRETEV [HPV35-E6, P27228]         4.38
1  RHTTSTETAV [HPV30-E6, P36809]         4.53
2    KKYVDAETSL [SLC4A7, Q9Y6M7]          4.8
3     EMDRRPATVV [PLCB4, Q15147]         3.91
4   EVVHTPETSV [SLC16A3, O15427]          4.5
5     RPLPRKVSQL [DOCK4, Q8N1I0]          3.5
6    VDFPPKESSL [ACVR2A, P27037]          4.7
7    PVRVCEETSL [OTULIN, Q96BN8]         5.23

Below are 2 binders. Give each one its pKd.
1. SSLQSLETSV [ATP2B4, P23634]
2. RLQRRRETQV [HPV18-E6, P06463]

4.79
4.48

Hi, could you look up pKd for each item in my list?
1. NDPAWDETNL [ARHGEF7, Q14155;Q14155-1]
2. RLPKIKETTV [FRMPD4, Q14CM0]
3. DKDPHSETAL [TMIGD1, Q6UXZ0]
4. QRQARSETLV [HPV59-E6, Q81964]

1. 3.98
2. 4.67
3. 4.64
4. 4.04

These data points were gathered from paper PMC9482650.
